Test system: rat pituitary adenoma GH3 cell lines
method summary: MTT cytotoxicity assay, GH3 cells
Assay type: cell-based
details: MTT method, read-out: Cytotoxicity IC50 against GH3 cell lines
pIC50: −log10 of the molar value.
Parameter pIC50: see the listing below.
assay readout: pIC50

{"columns": ["entry smiles", "measured"],
 "data": [
  ["C[C@@H]1CCCCCCCc2cc(O)cc(O)c2C(=O)O1", 5.19],
  ["C[C@H]1CCC(=O)CCCCc2cc(O)cc(O)c2C(=O)O1", 4.67],
  ["C[C@@H]1CCCCCCCC(=O)Cc2cc(O)cc(O)c2C(=O)O1", 4.91]
]}

----------
# pIC50 listing for each entry below
method summary: MTT cytotoxicity assay, rat normal pituitary cells
Format: cell-based
details: rat, rat normal pituitary cells (RPC); MTT method; normal cells used as control; read-out: Cytotoxicity IC50 against rat normal pituitary cells (RPC)
pIC50: −log10 of the molar value.

{"columns": ["entry smiles", "pIC50"],
 "data": [
  ["C[C@@H]1CCCCCCCC(=O)Cc2cc(O)cc(O)c2C(=O)O1", 4.00],
  ["C[C@H]1CCC(=O)CCCCc2cc(O)cc(O)c2C(=O)O1", 3.85],
  ["C[C@@H]1CCCCCCCc2cc(O)cc(O)c2C(=O)O1", 5.16]
]}
